- testDetails: SU-DIPG-VI glioma cell viability, MIPE4.0 library, CellTiter-Glo luminescence, qHTS (AID 1347066);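 also: cells exposed to compound for 48 hours before readout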
- measurementParameters: CellTiter-Glo ATP luminescence
Results filed as inconclusive are left out. Activity calls are given as the source filed them. The limit is not given here; nearly all actives have AC50 up to about 30 µM.
I would appreciate it if you answered using one of these outcomes: T for active, F for inactive

# fetch the recorded call for N[C@@H]1CONC1=O here
F

# fetch the recorded call for Nc1c2c(nc3ccccc13)CCCC2 here
F

# fetch the recorded call for CN(C)CCOC(c1ccccc1)c1ccccc1 here
F

# fetch the recorded call for Cc1ccc(C)c(OCCCC(C)(C)C(=O)O)c1 here
F

# fetch the recorded call for COc1cc2ncn(-c3cc(OCc4ccccc4S(C)(=O)=O)c(C#N)s3)c2cc1OC here
F

# fetch the recorded call for O=c1[nH]cc(F)c(=O)[nH]1 here
F

# fetch the recorded call for C#C[C@]1(O)CC[C@H]2[C@@H]3CCC4=CC(=O)CC[C@@H]4[C@H]3CC[C@@]21CC here
F

# fetch the recorded call for CN1CCN(CCCN2c3ccccc3Sc3ccc(C(F)(F)F)cc32)CC1 here
F

# fetch the recorded call for CC(C)Cc1ccc(C(C)C(=O)O)cc1 (stereo not drawn) here
F

# fetch the recorded call for CN(C)CCc1c[nH]c2ccc(C[C@H]3COC(=O)N3)cc12 here
F

# fetch the recorded call for CCCc1cc(=O)[nH]c(=S)[nH]1 here
F

# fetch the recorded call for CC12CC3CC(C)(C1)CC(N)(C3)C2 here
F

# fetch the recorded call for CCC(=O)O[C@]1(C(=O)CCl)[C@@H](C)C[C@H]2[C@@H]3CCC4=CC(=O)C=C[C@]4(C)[C@@]3(F)[C@@H](O)C[C@@]21C here
F

# fetch the recorded call for Cc1cccc(CN2CCN(C(c3ccccc3)c3ccc(Cl)cc3)CC2)c1 (stereo not drawn) here
T

# fetch the recorded call for NNC(=O)c1ccncc1 here
F

# fetch the recorded call for CN[C@@H]1[C@H](O)[C@H](NC)[C@H]2O[C@@]3(O)C(=O)C[C@@H](C)O[C@H]3O[C@@H]2[C@H]1O here
T

# fetch the recorded call for CC(C[N+](C)(C)C)OC(N)=O (stereo not drawn) here
F

# fetch the recorded call for O=S(=O)(O)CCS here
F

---

Please respond with reported insulin secretion stimulation for every item in the list.
- testDetails: stimulators of insulin release from INS-1E, primary screen, cell-based, 5 mM glucose, NPC library (AID 1117329)
- measurementParameters: rat INS-1E insulin secretion, at 10 µM, stronger effect = higher value
Activity calls are given as the source filed them.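 The calls were made as follows: active = compound raises insulin release from rat beta cells at 5 mM glucose, no numeric limit stated; inactive = the rest.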

Determine from records and report insulin secretion stimulation for CN(C)CCN(Cc1ccsc1)c1ccccn1
1.3% (inactive)

Determine from records and report insulin secretion stimulation for O=C(CCOCCOCCOCCOCCC(=O)Nc1c(I)cc(I)c(C(=O)O)c1I)Nc1c(I)cc(I)c(C(=O)O)c1I
0.1% (inactive)

Determine from records and report insulin secretion stimulation for C[C@H]1C[C@H](O)c2ccsc2S1(=O)=O
-0.8% (inactive)

Determine from records and report insulin secretion stimulation for CCOC(=O)OCC/C(SC(=O)OCC)=C(\C)N(C=O)Cc1cnc(C)nc1N
1.5% (inactive)

---

Please respond with reported liver cell % of control for every item in the list.
- testDetails: kinase inhibitors against Plasmodium liver-stage infection, cell-based, known kinase inhibitor set, luminescence, hepatoma host viability (AID 624392);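 also: infected cells incubated roughly two days before readout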
- measurementParameters: Plasmodium liver stage in hepatoma cells, luciferase luminescence, concentration not given here; measured here: host liver cell viability
Provide only the numeric value, understood in %.

Determine from records and report liver cell % of control for Cc1c(C2=C(c3cn(C)c4ccccc34)C(=O)NC2=O)c2ccccc2n1C
103

Determine from records and report liver cell % of control for COc1cc(F)c(F)c(F)c1C(=O)c1cnc(NC2CCN(S(C)(=O)=O)CC2)nc1N
92.2

Determine from records and report liver cell % of control for CCS(=O)(=O)c1ccc(OC)c(Nc2ncc(-c3cccc(OC)c3)o2)c1
161

Determine from records and report liver cell % of control for COc1cccc(-n2ncc3c(N/N=C/c4ccc(F)cc4)ncnc32)c1
104

Determine from records and report liver cell % of control for COc1cccc(-c2c[nH]c3c(N/N=C/c4ccncc4)ncnc23)c1
72.3

Determine from records and report liver cell % of control for O=S1CCN(Cc2ccc(-c3ccc4ncnc(Nc5ccc(OCc6ccccc6)c(F)c5)c4c3)o2)CC1
81.6

Determine from records and report liver cell % of control for Nc1c(C(=O)c2cccc(C#CCN3CCOCC3)c2)cnn1-c1ccc(F)cc1
159

Determine from records and report liver cell % of control for CCn1c(-c2nonc2N)nc2c(C#CC(C)(C)O)ncc(OCC3CCNCC3)c21
88.1

Determine from records and report liver cell % of control for CNC(=O)c1ncccc1Nc1nc(Nc2cc3c(cc2OC)CCCN3C(=O)CN(C)C)nc2[nH]ccc12
91.6

Determine from records and report liver cell % of control for COc1cccc2c1c(C1=C(c3cn(C)c4ccccc34)C(=O)NC1=O)cn2C
85.8

Determine from records and report liver cell % of control for Fc1cccc(COc2ccc(Nc3ncnc4sc(-c5ccco5)cc34)cc2Cl)c1
85.8

Determine from records and report liver cell % of control for Cn1c(=O)c(Sc2ccccc2F)cc2cnc(NC3CCOCC3)nc21
103

Determine from records and report liver cell % of control for O=C1C(c2c[nH]c3ccccc23)=C(c2c[nH]c3ccccc23)C(=O)N1O
107

Determine from records and report liver cell % of control for Nc1c(C(=O)c2cccc(OCC(O)CO)c2)cnn1-c1ccc(F)cc1 (configuration not stated)
125

Determine from records and report liver cell % of control for CC(=O)NC(Cc1ccc(OP(=O)(O)O)cc1)C(=O)NC1CCC(=O)N2CCCC(C(=O)NCc3ccc(O)cc3)N2C1=O (configuration not stated)
107

Determine from records and report liver cell % of control for N=C1N=C(N)C(=Cc2ccc3ncccc3c2)S1
121

Determine from records and report liver cell % of control for Cn1cc(C2=C(c3cn(CCCCO)c4ccccc34)C(=O)NC2=O)c2ccccc21
84

Determine from records and report liver cell % of control for Cn1c(=O)c(Oc2ccc(F)cc2F)cc2cnc(NCCS(C)(=O)=O)nc21
117

Determine from records and report liver cell % of control for CNC(C#Cc1c(F)ccc2c1C(=Cc1[nH]ccc1OC)C(=O)N2)CO (configuration not stated)
129

Determine from records and report liver cell % of control for FC(F)(F)c1ccc(-c2nn3ncccc3c2-c2ccnc(Nc3ccc4c(c3)OCCO4)n2)cc1
105

Determine from records and report liver cell % of control for Nc1[nH]nc2nc(-c3cccs3)cc(C(F)(F)F)c12
104

Determine from records and report liver cell % of control for Fc1ccc(-c2cc(C3CNNC3c3ccccn3)ccn2)cc1 (configuration not stated)
162

Determine from records and report liver cell % of control for N#Cc1cccc(Nc2nccc(-c3cnn4ncccc34)n2)c1
128

Determine from records and report liver cell % of control for Cc1cc(-c2ccco2)cc(C)c1/C=C/c1cncc(-c2nn[nH]n2)c1
90.5

Determine from records and report liver cell % of control for Cc1ccc(C(=O)NC2CCC2)cc1-c1ccc(C(=O)NCC2CC2)cc1
104

Determine from records and report liver cell % of control for O=S1CCN(Cc2ccc(-c3ccc4ncnc(Nc5ccc(OCc6ccccc6)c(Cl)c5)c4c3)o2)CC1
98.4

Determine from records and report liver cell % of control for CCn1c(-c2nonc2N)nc2cncc(C(=O)NCCNC)c21
80.5

Determine from records and report liver cell % of control for Fc1ccc(-c2ncn(C3CCNCC3)c2-c2ccnc(Oc3ccc(F)c(F)c3)n2)cc1
83

Determine from records and report liver cell % of control for Cn1cc(C2=C(c3cccc(Cl)c3)C(=O)NC2=O)c2ccccc21
109

Determine from records and report liver cell % of control for Nc1nccc(-c2c(-c3ccc(F)cc3)ncn2CCCN2CCOCC2)n1
120

Determine from records and report liver cell % of control for O=C1NC(=O)C(=Cc2ccc3ncccc3c2)S1
98

Determine from records and report liver cell % of control for NS(=O)(=O)c1cccc(N=Cc2c(O)[nH]c3ccccc23)c1
80.7
